Where do the numbers come from? From the supplement of paper PMC9170038.

Tested on: MS2 coat protein
Test: apparent KD of MS2 coat protein; higher = weaker reporter binding
Conditions: Eterna round: R107; input ligand: arginine 13.2 mM
Measured Parameter: apparent KD of MS2 coat protein (nM)
Numbers only; they are read as nM.

• AACAGUAUUAUAGAUACCAGCAGGUCAUAAGACAUGAGGAUCACCCAUGUGAAUGAGGUAUGCCCUUGGCAGCUAUGAGGUCCUC [theeternabot_sameState_MS2_Theo_B_18] = 113

# input Query: apparent KD of MS2 coat protein; subject: GGAUUCAACUCGGCCGCCACUGGUGAUCCUAAUGUACAUGAGGAUCACCCAUGUACAUGAGAAUAUAGGACCGGGAGAUAAGUUA [Tryptophan B V3 (+3U)]
# output 23.2

# input Requested read-out: apparent KD of MS2 coat protein. Entry: UGUCAGCGAAAGUUGACAUGUUGAACCGGUCGAGGACCGGUACGGCCGCCACUCGAUCUCUCGUACAUGAGGAUCACCCAUGUCG [SS Tryp A #18]
# output 11.9
